- PROTOCOL_DETAILS: determination of the logP-Values by HPLC according to EEC-Direktive 79/831 Annex V. A8
- Type: physicochemical
- RUN_PARAMETERS: HPLC (gradient, acetonitrile/0.1% aqueous phosphoric acid), gradient method, acetonitrile/0,1% aqueous phosphoric acid, read-out: log p
MEASURE: chromatographic logP

Worked examples follow.
MOLECULE: COC(=O)C(=O)c1ccccc1O [methyl 2-hydroxyphenylglyoxylate]
chromatographic logP: 1.87

MOLECULE: CNC(=O)/C(=N\OC)c1ccccc1Oc1ncnc(Oc2cccc(Cl)c2C)c1F [XI-1, Z-isomer]
chromatographic logP: 3.44

MOLECULE: CNC(=O)/C(=N/OC)c1ccccc1O
chromatographic logP: 0.98

MOLECULE: COC(=O)/C(=N/O)c1ccccc1O
chromatographic logP: 0.95

MOLECULE: CNC(=O)/C(=N/OC)c1ccccc1Oc1ncnc(F)c1F
chromatographic logP: 1.95

(1) CNC(=O)/C(=N\OC)c1ccccc1Oc1ncnc(F)c1F
(2) CNC(=O)/C(=N/OC)c1ccccc1Oc1ncnc(Oc2cccc(Cl)c2C)c1F [XI-1, E-isomer]
Task item: // pick min by chromatographic logP: 1 , 2 Please identify the chosen entry by its label.
Reply: 1
(1: 1.87, 2: 3.51)

----------
- PROTOCOL_DETAILS: determination of the logP-Values by HPLC according to EEC-Direktive 79/831 Annex V. A8
- Assay type: physicochemical
- RUN_PARAMETERS: HPLC (gradient, acetonitrile/0.1% aqueous phosphoric acid), gradient method, acetonitrile/0,1% aqueous phosphoric acid, read-out: log p
MEASURE: chromatographic logP

TEST_SMILES: CNC(=O)/C(=N\OC)c1ccccc1O
chromatographic logP: 1.29

TEST_SMILES: O=C1Oc2ccccc2/C1=N\O
chromatographic logP: 1.55

TEST_SMILES: CO/N=C(\C(=O)OC)c1ccccc1O
chromatographic logP: 2.39

TEST_SMILES: CO/N=C(/C(=O)OC)c1ccccc1O
chromatographic logP: 1.48

TEST_SMILES: COC(=O)/C(=N\O)c1ccccc1O
chromatographic logP: 1.68
